- TGT: 5-hydroxytryptamine receptor 2A (Homo sapiens, UniProt P28223)
- Sequence (P28223 whole entry): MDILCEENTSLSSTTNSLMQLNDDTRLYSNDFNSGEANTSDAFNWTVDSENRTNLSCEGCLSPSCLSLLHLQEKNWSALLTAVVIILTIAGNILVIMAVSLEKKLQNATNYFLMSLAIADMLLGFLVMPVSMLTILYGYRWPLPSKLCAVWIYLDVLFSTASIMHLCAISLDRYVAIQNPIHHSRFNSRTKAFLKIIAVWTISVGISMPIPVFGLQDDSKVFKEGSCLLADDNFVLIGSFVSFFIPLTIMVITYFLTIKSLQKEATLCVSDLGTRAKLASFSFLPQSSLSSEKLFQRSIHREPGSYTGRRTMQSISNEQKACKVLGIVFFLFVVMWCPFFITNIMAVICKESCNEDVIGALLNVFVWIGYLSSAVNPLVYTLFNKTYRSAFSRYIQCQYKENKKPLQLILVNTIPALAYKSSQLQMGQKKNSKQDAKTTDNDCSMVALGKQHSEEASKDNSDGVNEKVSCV
- ASSAY REMARKS: Antagonist activity against human 5HT2A transfected in CHO cells by aurora beta lactamase reporter gene assay
pIC50: −log10 of the molar value.

{"RECORD SMILES": "O=S(=O)(c1cccc(F)c1)N1CCC(CCc2ccc(F)cc2F)CC1", "pIC50": 6.50}

----------
pKi: −log10 of the molar value.
pKi, Voltage-gated inwardly rectifying potassium channel KCNH2 (Homo sapiens, UniProt Q12809), per-entry values.

{"RECORD SMILES": "O=S(=O)(c1ccc(F)cc1)N1CCN(CCc2ccc(F)cc2F)CC1", "pKi": 5.31}
{"RECORD SMILES": "O=S(=O)(c1cccc2ccccc12)N1CCC(CCc2ccc(F)cc2F)CC1", "pKi": "< 5.05"}
{"RECORD SMILES": "O=S(=O)(c1ccc(F)cc1)N1CC=C(CCc2ccc(F)cc2F)CC1", "pKi": "< 5.05"}
{"RECORD SMILES": "O=S(=O)(c1ccccc1F)N1CCC(CCc2ccc(F)cc2F)CC1", "pKi": "< 5.05"}
{"RECORD SMILES": "O=S(=O)(c1ccc(F)cc1)N1CCC(O)(CCc2ccc(F)cc2F)CC1", "pKi": "< 5.05"}

----------
- TGT: Voltage-gated inwardly rectifying potassium channel KCNH2 (Homo sapiens, UniProt Q12809)
- Sequence (Q12809 whole entry): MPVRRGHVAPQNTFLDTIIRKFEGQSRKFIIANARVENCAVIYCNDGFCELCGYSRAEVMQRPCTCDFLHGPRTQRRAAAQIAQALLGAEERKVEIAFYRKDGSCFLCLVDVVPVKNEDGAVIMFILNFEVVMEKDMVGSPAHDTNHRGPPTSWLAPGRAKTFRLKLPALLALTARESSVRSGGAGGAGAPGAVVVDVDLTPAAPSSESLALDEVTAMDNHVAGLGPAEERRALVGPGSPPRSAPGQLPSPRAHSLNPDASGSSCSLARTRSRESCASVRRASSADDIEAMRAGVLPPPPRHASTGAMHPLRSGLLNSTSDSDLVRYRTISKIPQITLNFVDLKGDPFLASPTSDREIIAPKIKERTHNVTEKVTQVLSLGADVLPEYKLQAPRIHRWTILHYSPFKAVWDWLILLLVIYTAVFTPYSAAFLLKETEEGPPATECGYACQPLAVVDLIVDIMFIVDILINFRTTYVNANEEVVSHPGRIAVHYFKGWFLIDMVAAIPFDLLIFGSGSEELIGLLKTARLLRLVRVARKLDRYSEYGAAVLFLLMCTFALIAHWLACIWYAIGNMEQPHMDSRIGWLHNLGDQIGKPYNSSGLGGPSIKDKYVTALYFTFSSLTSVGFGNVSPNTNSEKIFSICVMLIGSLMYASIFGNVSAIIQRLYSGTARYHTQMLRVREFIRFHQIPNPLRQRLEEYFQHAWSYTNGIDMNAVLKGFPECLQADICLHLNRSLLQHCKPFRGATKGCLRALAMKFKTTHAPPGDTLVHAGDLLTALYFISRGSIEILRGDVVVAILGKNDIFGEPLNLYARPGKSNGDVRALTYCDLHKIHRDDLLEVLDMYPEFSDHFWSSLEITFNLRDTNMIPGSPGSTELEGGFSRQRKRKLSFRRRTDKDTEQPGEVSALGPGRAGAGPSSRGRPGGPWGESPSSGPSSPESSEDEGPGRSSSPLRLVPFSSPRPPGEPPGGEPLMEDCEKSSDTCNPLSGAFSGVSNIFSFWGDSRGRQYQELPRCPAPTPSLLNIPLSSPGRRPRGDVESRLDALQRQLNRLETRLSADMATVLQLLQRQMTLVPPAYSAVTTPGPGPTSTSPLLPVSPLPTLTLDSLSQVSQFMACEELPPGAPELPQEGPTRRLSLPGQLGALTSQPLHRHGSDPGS
List of Ki values.
READOUT NAME: Ki

{"RECORD SMILES": "N#Cc1c[nH]c2c(C(=O)N3CCN(CCc4ccc(F)cc4F)CC3)cccc12", "READOUT NAME": "Ki", "OBSERVED RESULT": "1.27 µM"}
{"RECORD SMILES": "O=C(c1ccccc1F)N1CCC(CCc2ccc(F)cc2F)CC1", "READOUT NAME": "Ki", "OBSERVED RESULT": "> 9 µM"}
{"RECORD SMILES": "O=C(c1cccc2cccnc12)N1CCC(CCc2ccc(F)cc2F)CC1", "READOUT NAME": "Ki", "OBSERVED RESULT": "> 9 µM"}
{"RECORD SMILES": "N#Cc1ccccc1S(=O)(=O)N1CCC(CCc2ccc(F)cc2F)CC1", "READOUT NAME": "Ki", "OBSERVED RESULT": "> 9 µM"}
{"RECORD SMILES": "O=S(=O)(c1ccc(F)cc1)N1CCC(CCc2ccc(F)cc2F)CC1", "READOUT NAME": "Ki", "OBSERVED RESULT": "> 9 µM"}
{"RECORD SMILES": "O=S(=O)(c1cccc(F)c1)N1CCC(CCc2ccc(F)cc2F)CC1", "READOUT NAME": "Ki", "OBSERVED RESULT": "> 9 µM"}
